testedSystem: nitrate reductase (NarB) (Synechococcus elongatus, UniProt P39458, K144Q)
Sequence (P39458 15-729 K144Q): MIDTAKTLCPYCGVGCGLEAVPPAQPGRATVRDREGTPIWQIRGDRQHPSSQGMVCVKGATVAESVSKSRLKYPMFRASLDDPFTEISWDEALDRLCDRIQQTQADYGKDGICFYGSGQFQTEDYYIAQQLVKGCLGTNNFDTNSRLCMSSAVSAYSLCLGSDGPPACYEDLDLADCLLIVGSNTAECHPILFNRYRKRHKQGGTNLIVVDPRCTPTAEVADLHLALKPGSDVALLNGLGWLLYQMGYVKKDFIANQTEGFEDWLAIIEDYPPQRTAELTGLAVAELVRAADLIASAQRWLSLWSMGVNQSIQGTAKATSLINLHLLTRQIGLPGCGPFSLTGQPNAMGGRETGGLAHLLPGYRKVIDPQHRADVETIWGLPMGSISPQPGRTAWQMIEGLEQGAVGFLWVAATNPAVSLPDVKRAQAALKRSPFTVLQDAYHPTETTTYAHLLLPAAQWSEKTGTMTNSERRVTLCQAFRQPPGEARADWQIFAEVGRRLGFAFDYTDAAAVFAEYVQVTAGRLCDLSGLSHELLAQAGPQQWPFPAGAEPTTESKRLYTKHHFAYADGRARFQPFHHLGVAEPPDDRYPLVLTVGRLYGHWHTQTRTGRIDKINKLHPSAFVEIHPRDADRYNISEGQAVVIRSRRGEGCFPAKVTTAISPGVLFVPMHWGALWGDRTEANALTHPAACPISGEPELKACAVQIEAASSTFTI
measurementProtocol: spectral perturbation titration
observedProperty: Kd (µM)
Hi! Could you send only the number? It should be in µM, unit omitted.

Memo: O=[N+]([O-])O [nitrate] , reported Kd: 19

----------
testedSystem: nitrate reductase (NarB) (Synechococcus elongatus, UniProt P39458, R84K)
measurementProtocol: spectral perturbation titration
observedProperty: pKd
pKd here: minus log base 10 of the concentration, concentration in moles per litre.

Form: item O=[N+]([O-])O [nitrate] ; test system nitrate reductase (NarB) (Synechococcus elongatus, UniProt P39458, R84K); pKd: 5.22

----------
testedSystem: nitrate reductase (NarB) (Synechococcus elongatus, UniProt P39458, K72Q)
measurementProtocol: spectral perturbation titration
observedProperty: pKd
pKd here: minus log base 10 of the concentration, concentration in moles per litre.

Memo: O=[N+]([O-])O [nitrate] , reported pKd: 5.10

----------
testedSystem: nitrate reductase (NarB) (Synechococcus elongatus, UniProt P39458, R84Q)
measurementProtocol: spectral perturbation titration
observedProperty: pKd
pKd here: minus log base 10 of the concentration, concentration in moles per litre.

Memo: O=[N+]([O-])O [nitrate] , reported pKd: 5.26

----------
testedSystem: nitrate reductase (NarB) (Synechococcus elongatus, UniProt P39458, K144R)
measurementProtocol: spectral perturbation titration
observedProperty: Kd (µM)
Hi! Could you send only the number? It should be in µM, unit omitted.

Memo: O=[N+]([O-])O [nitrate] , reported Kd: 13.4

----------
testedSystem: nitrate reductase (NarB) (Synechococcus elongatus, UniProt P39458, R160Q)
Sequence (P39458 15-729 R160Q): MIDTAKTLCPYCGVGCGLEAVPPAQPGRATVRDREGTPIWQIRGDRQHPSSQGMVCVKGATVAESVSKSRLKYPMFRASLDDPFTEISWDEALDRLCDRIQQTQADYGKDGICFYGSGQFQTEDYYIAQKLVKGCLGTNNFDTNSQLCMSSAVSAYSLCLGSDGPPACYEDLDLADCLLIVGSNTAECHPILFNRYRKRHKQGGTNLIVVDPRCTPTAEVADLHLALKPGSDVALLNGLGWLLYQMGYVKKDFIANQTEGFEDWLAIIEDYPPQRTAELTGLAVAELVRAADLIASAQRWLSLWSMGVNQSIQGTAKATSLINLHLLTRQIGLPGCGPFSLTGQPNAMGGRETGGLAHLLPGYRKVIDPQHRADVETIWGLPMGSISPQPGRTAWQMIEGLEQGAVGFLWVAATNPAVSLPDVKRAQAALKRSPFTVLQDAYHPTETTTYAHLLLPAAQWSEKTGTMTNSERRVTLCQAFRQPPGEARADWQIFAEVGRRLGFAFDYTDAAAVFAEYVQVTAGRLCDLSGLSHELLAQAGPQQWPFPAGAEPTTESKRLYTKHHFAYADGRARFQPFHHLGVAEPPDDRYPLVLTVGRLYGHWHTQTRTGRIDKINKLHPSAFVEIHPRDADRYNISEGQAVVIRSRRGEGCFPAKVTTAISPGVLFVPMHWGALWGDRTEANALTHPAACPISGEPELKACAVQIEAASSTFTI
measurementProtocol: spectral perturbation titration
observedProperty: Kd (nM)
Hi! Could you send only the number? It should be in nM, unit omitted.

Memo: O=[N+]([O-])O [nitrate] , reported Kd: 1500
